# System: folylpolyglutamate synthetase (FPGS)
# ASSAY PROTOCOL: Activity is determined as substrate for CCRF-CEM human leukemia cell folyl-poly-glutamate synthetase
# Type: ADME
# CONDITION: folylpolyglutamate synthetase from CCRF-CEM leukemia cells
Answer each item with its documented Km.
Answer with a number only, understood to be in µM.

Sample Nc1nc(N)c2nc(CNc3ccc(C(=O)N[C@@H](CCC(=O)O)C(=O)O)cc3)cnc2n1 [AMINOPTERIN] — what was its Km?
6.8

Sample Nc1nc(N)c2c(CNc3ccc(C(=O)NC(CCC(=O)O)C(=O)O)cc3)coc2n1 (stereo not drawn) — what was its Km?
1.9

Sample CN(Cc1coc2nc(N)nc(N)c12)c1ccc(C(=O)NC(CCC(=O)O)C(=O)O)cc1 (stereo not drawn) — what was its Km?
4.65

###

Answer each item with its documented IC50.
# Test system: ACHN
# ASSAY PROTOCOL: Inhibitory activity against kidney A-CHN tumor cell growth in culture
# Type: functional, cell-based
# CONDITION: Homo sapiens

Sample Nc1nc(N)c2c(CNc3cc(Cl)c(Cl)c(Cl)c3)coc2n1 — what was its IC50?
40.9 µM

Sample Nc1nc(N)c2c(CNc3ccc(C(=O)NC(CCC(=O)O)C(=O)O)cc3)coc2n1 (stereo unspecified) — what was its IC50?
> 100 µM

Sample CN(Cc1coc2nc(N)nc(N)c12)c1ccc(C(=O)NC(CCC(=O)O)C(=O)O)cc1 (stereo unspecified) — what was its IC50?
0.837 µM

Sample COc1ccc(OC)c(NCc2coc3nc(N)nc(N)c23)c1 — what was its IC50?
> 160 µM

Sample Nc1nc(N)c2c(CNc3ccc(Cl)c(Cl)c3)coc2n1 — what was its IC50?
> 150 µM

Sample COc1cc(NCc2coc3nc(N)nc(N)c23)cc(OC)c1OC — what was its IC50?
> 130 µM

###

Target sequence: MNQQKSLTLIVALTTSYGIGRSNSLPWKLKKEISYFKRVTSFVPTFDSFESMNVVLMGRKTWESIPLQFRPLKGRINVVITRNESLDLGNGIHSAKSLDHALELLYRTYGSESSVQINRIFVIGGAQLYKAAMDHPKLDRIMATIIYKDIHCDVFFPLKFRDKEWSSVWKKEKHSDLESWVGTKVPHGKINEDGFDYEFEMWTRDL
pIC50: −log10 of the molar value.
Answer each item with its documented pIC50.

Sample COc1ccc(OC)c(NCc2coc3nc(N)nc(N)c23)c1 — what was its pIC50?
< 4.68

Sample Nc1nc(N)c2c(CNc3ccc(Cl)c(Cl)c3)coc2n1 — what was its pIC50?
< 4.46

Sample COc1cc(NCc2coc3nc(N)nc(N)c23)cc(OC)c1OC — what was its pIC50?
< 5.40

Attribution: ChEMBL document CHEMBL1127819
